target: GSK-3α/β; assay: GSK-3 kinase assay (GS-1 peptide, 15 μM ATP); format: biochemical, porcine; conditions: 15 μM ATP, Table 1; read-out: IC50 GSK-3
property-measured: IC50 (nM)

These solved cases illustrate the format of a correct answer.
[Q] Fill in reported IC50 for this entry: Fc1ccc(-c2cc3nccnc3[nH]2)cc1 [18 (RP76)]
[A] 1900

[Q] Give the reported IC50 for this compound. Cc1c(-c2ccc(Cl)cc2)[nH]c2nccnc12 [30 (RP80)]
[A] 1700

[Q] Indicate the recorded IC50 value for this compound: COc1ccc(-c2[nH]c3nccnc3c2C)cc1OC [29 (RP123)]
[A] 2000

[Q] Give the measured IC50 for COc1ccc(-c2[nH]c3nccnc3c2C(C)C)cc1 [36 (RP102)]
[A] 500

[Q] Read the entry COc1ccc(-c2[nH]c3nccnc3c2C)cc1 [27 (RP95)] and write its reported IC50.
[A] 460

[Q] Identify the reported IC50 for the following entry. C=CCc1c(-c2ccc(OC)cc2)[nH]c2nccnc12 [34 (RP110)]
[A] 600

a: COc1cc(-c2cc3nccnc3[nH]2)cc(OC)c1OC [17 (RP16)]
b: Br.Oc1ccccc1-c1cc2nccnc2[nH]1 [11 (RP109), hydrobromide]
c: Cc1c(-c2ccc(OS(=O)(=O)N(C)C)cc2)[nH]c2nccnc12 [31 (RP125)]
d: c1cnc2[nH]c(-c3ccsc3)cc2n1 [3 (RP128)]
e: CN(C)c1ccc(-c2cc3nccnc3[nH]2)cc1 [26 (RP129)]
[Q] Sort (5 compounds) by IC50: min first. Answer format: the labels, ordered as requested.
[A] c, d, b, e, a

----------
property-measured: melting point

Use the examples below as a reference point.
[Q] Read the entry COc1ccc(-c2[nH]c3nccnc3c2CCCCl)cc1 [35 (RP126)] and write its reported melting point.
[A] 178 °C (dec.)

[Q] Read off the recorded melting point for Br.Oc1cccc(-c2cc3nccnc3[nH]2)c1 [13 (RP134)]
[A] 258 °C (dec.)

[Q] Given Br.Oc1ccccc1-c1cc2nccnc2[nH]1 [11 (RP109)] , respond with its melting point.
[A] 250 °C (dec.)

***
[Q] Identify measured melting point corresponding to Clc1ccc(-c2cc3nccnc3[nH]2)cc1 [19 (RP14)]
[A] 250 °C (dec.)

[Q] Return melting point for the following compound: Clc1cc(Cl)cc(-c2cc3nccnc3[nH]2)c1 [20 (RP15)]
[A] 252 °C (dec.)

[Q] Note down melting point recorded for Cc1c(-c2ccc(Cl)cc2)[nH]c2nccnc12 [30 (RP80)]
[A] 260 °C (dec.)

[Q] Report melting point for c1cnc2[nH]c(-c3ccsc3)cc2n1 [3 (RP128)]
[A] 230 °C (dec.)

[Q] Provide melting point value for the following compound: Br.Oc1ccc(-c2cc3nccnc3[nH]2)cc1 [15 (RP26)]
[A] 255 °C (dec.)

[Q] Assign melting point to the following record: Br.Cc1c(-c2ccc(O)cc2)[nH]c2nccnc12 [28 (RP96)]
[A] 262 °C (dec.)

----------
Reported IC50 values follow for various compounds
target: CDK5/p25 (Homo sapiens, UniProt Q00535); test: CDK5/p25 kinase assay (histone H1, 15 μM ATP); assay type: biochemical, mammalian; settings: Table 1
Sequence (Q00535 whole entry, species assumed): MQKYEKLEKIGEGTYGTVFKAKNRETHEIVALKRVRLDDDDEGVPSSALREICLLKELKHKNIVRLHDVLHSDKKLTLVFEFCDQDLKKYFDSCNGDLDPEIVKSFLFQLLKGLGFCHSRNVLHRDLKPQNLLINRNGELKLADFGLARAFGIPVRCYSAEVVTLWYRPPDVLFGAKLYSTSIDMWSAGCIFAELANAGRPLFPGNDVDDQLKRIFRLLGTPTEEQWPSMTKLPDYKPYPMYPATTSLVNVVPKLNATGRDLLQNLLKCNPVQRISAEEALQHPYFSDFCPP
Sequence (Q15078 99-307 partner limits assumed, species assumed): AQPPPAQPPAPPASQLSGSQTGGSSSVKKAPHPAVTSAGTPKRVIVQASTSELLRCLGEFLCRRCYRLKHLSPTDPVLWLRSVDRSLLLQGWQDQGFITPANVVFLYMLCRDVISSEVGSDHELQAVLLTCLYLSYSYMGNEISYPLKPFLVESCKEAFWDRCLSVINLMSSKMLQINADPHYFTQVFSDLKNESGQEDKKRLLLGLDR
Structures can show the parent of a compound that is named as a salt.

For orientation, consider the following solved cases.
[Q] Please look at this compound and report its IC50: Cc1c(-c2ccc(OS(=O)(=O)N(C)C)cc2)[nH]c2nccnc12 [31 (RP125)]
[A] 0.9 µM

[Q] Indicate its recorded IC50; the compound in question is Br.Oc1ccccc1-c1cc2nccnc2[nH]1 [11 (RP109), hydrobromide]
[A] 3 µM

[Q] Could you please provide reported IC50 for Clc1cc(Cl)cc(-c2cc3nccnc3[nH]2)c1 [20 (RP15)] ? Thanks!
[A] > 100 µM

[Q] Consider the compound COc1cc(-c2cc3nccnc3[nH]2)cc(OC)c1OC [17 (RP16)] and give its recorded IC50.
[A] > 100 µM

[Q] Could you please provide reported IC50 for FC(F)(F)c1ccc(-c2cc3nccnc3[nH]2)cc1 [22 (RP8)] ? Thanks!
[A] > 100 µM

Next:
[Q] # return recorded IC50 for entry c1cnc2[nH]c(-c3ccsc3)cc2n1 [3 (RP128)]
[A] 1 µM

[Q] Please report the measured IC50 for c1csc(-c2cc3nccnc3[nH]2)c1 [2 (RP6), 6-(2-Thienyl)[5H]pyrrolo[2,3-b]pyrazine]
[A] 2 µM

[Q] Quick one: give measured IC50 for Oc1ccc(-c2[nH]c3nccnc3c2CC2CC2)cc1 [43 (RP112), hydrobromide]
[A] > 100 µM

[Q] # return recorded IC50 for input c1ccc(Cc2c(-c3ccccc3)[nH]c3nccnc23)cc1 [44 (RP92)]
[A] > 100 µM

[Q] Fill in IC50 for record CCCCc1c(-c2ccc(Cl)cc2)[nH]c2nccnc12 [40 (RP108)]
[A] > 100 µM

[Q] Return reported IC50. Input compound: COc1cc(OC)cc(-c2cc3nccnc3[nH]2)c1 [16 (RP21)]
[A] > 100 µM

[Q] Identify the reported IC50 for the following entry. CCCCCCCc1c(-c2ccc(OC)cc2)[nH]c2nccnc12 [41 (RP111)]
[A] > 100 µM

[Q] // Input: COc1ccc(-c2c(C)c3nccnc3n2C2CC2)cc1 [42 (RP104)] . Output its IC50 only.
[A] > 100 µM

[Q] Identify the reported IC50 for the following entry. c1coc(-c2cc3nccnc3[nH]2)c1 [1 (RP19), 6-(2-Furyl)[5H]pyrrolo[2,3-b]pyrazine]
[A] 9.3 µM
